Sourced from patent US20250270324A1

target: T1, Cyno PD-L1-rCD4-His (cynomolgus); assay: SPR, IgG1 from culture supernatant
T1 construct: The entry as printed begins with the signal peptide; also called cynomolgus PD-L1-rCD4-His
T1 sequence (chain, as listed by the source limits assumed): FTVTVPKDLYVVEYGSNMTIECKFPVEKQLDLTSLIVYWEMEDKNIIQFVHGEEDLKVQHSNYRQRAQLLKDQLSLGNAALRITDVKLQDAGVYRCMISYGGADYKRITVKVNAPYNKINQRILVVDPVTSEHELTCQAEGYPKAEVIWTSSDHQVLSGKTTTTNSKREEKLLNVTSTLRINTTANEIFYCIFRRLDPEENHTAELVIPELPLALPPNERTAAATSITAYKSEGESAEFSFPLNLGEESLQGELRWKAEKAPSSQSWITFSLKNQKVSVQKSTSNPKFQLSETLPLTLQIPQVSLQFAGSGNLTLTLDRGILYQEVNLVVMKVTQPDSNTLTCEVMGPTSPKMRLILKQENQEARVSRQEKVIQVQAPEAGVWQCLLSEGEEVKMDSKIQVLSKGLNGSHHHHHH
measured-quantity: pKd
Numbers only, as −log10 of the molar value.

>>> reported("G1/929_01_A04 (antibody, human IgG1, V domains shown, IgG1; GGST variant of G1/894_08_A05) VH: EVQLVQSGAEVKRPGASVKVSCKASGYTFTSYGISWVRQAPGQGLEWMGWISAYGGSTNYAQKLQGRVTMTTDTSTSTAYMELRSLRSDDTAVYYCARDLFPTIFGVSYYYYWGQGTLVTVSS VL: DIQMTQSPSTLSASVGDRVTITCRASQSISGRLAWYQQKPGKAPNLLIYEASNLESGVPSRFSGSGSGTEFTLTINSLQPDDFATYYCQQANTFPRVSFGGGTKVEIKR")
9.22
>>> reported("G1/929_01_A12 (antibody, human IgG1, V domains shown, IgG1) VH: EVQLVQSGAEVKRPGASVKVSCKASGYTFTSYGISWVRQAPGQGLEWMGWISAYSGNANYAQKLQGRVTMTTDTSTSTAYMELRSLRSDDTAVYYCARDLFPTIFGVSYYYYWGQGTLVTVSS VL: DIQMTQSPSTLSASVGDRVTITCRASQSISGRLAWYQQKPGKAPNLLIYEASNLESGVPSRFSGSGSGTEFTLTISSLQPEDFATYYCQQSYSWPRTFGQGTKVEIKR")
9.18
>>> reported("G1/929_01_A02 (antibody, human IgG1, V domains shown, IgG1; The heavy chain as printed has T28) VH: EVQLVQSGAEVKRPGASVKVSCKASGYTFTSYGISWVRQAPGQGLEWMGWISAYSGGTNYAQKLQGRVTMTTDTSTSTAYMELRSLRSDDTAVYYCARDLFPTIFGVSYYYYWGQGTLVTVSS VL: DIQMTQSPSTLSASVRDRVIITCRASQSIGNRLAWYQHKPGKAPKLLIYEASTSETGVPSRFSGSGSGTDFTLTISSLQPEDFATYYCQQSYSTPYTFGQGTKLEIKR")
8.44
>>> reported("G1/929_01_A01 (antibody, human IgG1, V domains shown, IgG1; The heavy chain as printed has T28) VH: EVQLVQSGAEVKRPGASVKVSCKASGYTFTSYGISWVRQAPGQGLEWMGWISAYGGSTNYAQKLQGRVTMTTDTSTSTAYMELRSLRSDDTAVYYCARDLFPTIFGVSYYYYWGQGTLVTVSS VL: DIQMTQSPSTLSASVRDRVIITCRASQSIGNRLAWYQHKPGKAPKLLIYEASTSETGVPSRFSGSGSGTDFTLTISSLQPEDFATYYCQQSYSTPYTFGQGTKLEIKR")
8.50

API: the following record is the query input.
Query :: Query (binder): G1/929_01_A07 (antibody, human IgG1, V domains shown, IgG1; GGST variant of G1/894_08_E05) VH: EVQLVQSGAEVKRPGASVKVSCKASGYTFTSYGISWVRQAPGQGLEWMGWISAYGGSTNYAQKLQGRVTMTTDTSTSTAYMELRSLRSDDTAVYYCARDLFPTIFGVSYYYYWGQGTLVTVSS VL: DIQMTQSPSTLSASVGDRVTITCRASQSISGRLAWYQQKPGKAPNLLIYEASNLESGVPSRFSGSGSGTEFTLTISSLQPEDFATYYCQQSYSTPRVTFGQGTKVEIKR ; field requested: pKd
Result :: 9.23
